Molecular target: human A3AR (Homo sapiens, UniProt P0DMS8)
Construct: expressed in transfected cells
Sequence (P0DMS8 whole entry): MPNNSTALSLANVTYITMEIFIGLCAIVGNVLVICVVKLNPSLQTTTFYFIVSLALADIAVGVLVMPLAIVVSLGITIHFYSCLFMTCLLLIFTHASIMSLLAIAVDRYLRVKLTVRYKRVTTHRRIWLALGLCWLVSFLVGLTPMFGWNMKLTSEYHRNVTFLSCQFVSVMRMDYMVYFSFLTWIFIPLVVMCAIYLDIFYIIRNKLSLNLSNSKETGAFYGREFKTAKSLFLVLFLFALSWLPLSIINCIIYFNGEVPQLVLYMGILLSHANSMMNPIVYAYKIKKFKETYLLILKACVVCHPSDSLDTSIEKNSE
Test: Cyclic AMP accumulation assay: inhibition of forskolin-stimulated cyclic AMP production in AR-transfected CHO cells
Format: cell-based
Conditions: at 10 μM, in comparison to the maximal effect of full agonist NECA at 10 μM
endpoint: % Inhibition of cAMP formation at hA3 AR (%)

Examples with answers:
compound	unit.descriptor	% Inhibition of cAMP formation at hA3 AR
CNC(=O)[C@@]12C[C@@H]1[C@@H](n1cnc3c(NCc4cccc(Cl)c4)nc(-c4nnn(-c5ccc(N=C=S)cc5)c4CCCCc4cn(-c5ccc(N=C=S)cc5)nn4)nc31)[C@H](O)[C@@H]2O	%	83.6
CNC(=O)[C@@]12C[C@@H]1[C@@H](n1cnc3c(NCc4cccc(Cl)c4)nc(C#CCCCCc4cn(-c5ccc(C(=O)CBr)cc5)nn4)nc31)[C@H](O)[C@@H]2O	%	109
CNC(=O)[C@@]12C[C@@H]1[C@@H](n1cnc3c(NCc4cccc(Cl)c4)nc(C#CCCCCc4cn(-c5ccc(C(=O)O)cc5)nn4)nc31)[C@H](O)[C@@H]2O	%	83.4

1. C#CCCCCC#Cc1nc(NCc2cccc(Cl)c2)c2ncn(C3C(O)C(O)C4(C(=O)NC)CC34)c2n1 (stereo not drawn)
2. CNC(=O)[C@@]12C[C@@H]1[C@@H](n1cnc3c(NCc4cccc(Cl)c4)nc(C#CCCCCc4cn(CCCCCCC(=O)NCCCCCCNC(=O)CCCC[C@@H]5SC[C@@H]6NC(=O)N[C@@H]65)nn4)nc31)[C@H](O)[C@@H]2O
3. CNC(=O)[C@@]12C[C@@H]1[C@@H](n1cnc3c(NCc4cccc(Cl)c4)nc(C#CCCCCc4cn(C56CC7CC(CC(C7)C5)C6)nn4)nc31)[C@H](O)[C@@H]2O
[in] Arrange the 3 entries by % Inhibition of cAMP formation at hA3 AR so the values rise. Return the labels ranked in the requested order, please.
[out] 3, 2, 1

###

Biological target: human A3AR (Homo sapiens, UniProt P0DMS8)
Construct: expressed in transfected cells
Assay: Radioligand binding at human A3 AR ([125I]I-AB-MECA, membranes of CHO cells)
Details: [125I]38; CHO cells; read-out: Affinity (Ki, nM), A3
endpoint: Ki (nM)

compound	unit.descriptor	Ki
CNC(=O)[C@@]12C[C@@H]1[C@@H](n1cnc3c(NCc4cccc(Cl)c4)nc(C#CCCCCc4cn(CCCCNC(C)=O)nn4)nc31)[C@H](O)[C@@H]2O [Compound 17]	nM	89.5
CNC(=O)[C@@]12C[C@@H]1[C@@H](n1cnc3c(NCc4cccc(Cl)c4)nc(C#CCCCCc4cn(CCCCN)nn4)nc31)[C@H](O)[C@@H]2O [Compound 16]	nM	47
CNC(=O)[C@@]12C[C@@H]1[C@@H](n1cnc3c(NCc4cccc(Cl)c4)nc(C#CCCCCc4cn(-c5ccc(N)cc5)nn4)nc31)[C@H](O)[C@@H]2O [Compound 12]	nM	87.1
CNC(=O)[C@@]12C[C@@H]1[C@@H](n1cnc3c(NCc4cccc(Cl)c4)nc(C#CCCCCc4cn(-c5ccc(F)c([N+](=O)[O-])c5)nn4)nc31)[C@H](O)[C@@H]2O [Compound 11]	nM	10.6
CNC(=O)[C@@]12C[C@@H]1[C@@H](n1cnc3c(NCc4cccc(Cl)c4)nc(C#CCCCc4cn(-c5ccc(F)c([N+](=O)[O-])c5)nn4)nc31)[C@H](O)[C@@H]2O [Compound 10]	nM	26
CNC(=O)[C@@]12C[C@@H]1[C@@H](n1cnc3c(NCc4cccc(Cl)c4)nc(C#CCCCCc4cn(-c5ccc(N=C=S)cc5)nn4)nc31)[C@H](O)[C@@H]2O [Compound 26]	nM	37.5

a. CNC(=O)[C@@]12C[C@@H]1[C@@H](n1cnc3c(NCc4cccc(Cl)c4)nc(C#CCCCCc4cn(CCCCCCC(=O)NCCCCCCNC(=O)CCCC[C@@H]5SC[C@@H]6NC(=O)N[C@@H]65)nn4)nc31)[C@H](O)[C@@H]2O [Compound 21]
b. CNC(=O)[C@@]12C[C@@H]1[C@@H](n1cnc3c(NCc4cccc(Cl)c4)nc(C#CCCCCc4cn(CCCCCCNC(=O)c5ccc(-c6c7ccc(=N)c(S(=O)(=O)O)c-7oc7c(S(=O)(=O)O)c(N)ccc67)c(C(=O)O)c5)nn4)nc31)[C@H](O)[C@@H]2O [Compound 23]
[in] Could you tell me which of these two has the smaller Ki figure? First: a Second: b Kindly give the label for the entry you pick.
[out] a
(a: 235 nM, b: 416 nM)

###

Molecular target: human A3AR (Homo sapiens, UniProt P0DMS8)
Construct: expressed in transfected cells
Assay: Radioligand binding at human A3 AR ([125I]I-AB-MECA, membranes of CHO cells)
Details: Example 7; agonist radioligand [125I]47; read-out: AR Affinity Ki, nM, A3
endpoint: Ki (nM)

Examples with their reported Ki follow.
sample.smiles	Ki (nM)
O=[N+]([O-])c1cc(-n2cc(CCCC#Cc3cccc(CNc4nc(Cl)nc5c4ncn5[C@H]4[C@H](O)[C@H](O)[C@@H]5C[C@@H]54)c3)nn2)ccc1F	897
C#CCCCCC#Cc1cccc(CNc2nc(Cl)nc3c2ncn3[C@H]2[C@H](O)[C@H](O)[C@]3(C(=O)NC)C[C@H]23)c1	113

A. C#CCNc1nc(Cl)nc2c1ncn2[C@H]1[C@H](O)[C@H](O)[C@]2(C(=O)NC)C[C@H]12
B. CNC(=O)[C@@]12C[C@@H]1[C@@H](n1cnc3c(NCc4cccc(C#CCCCCc5cn(-c6ccc(F)c([N+](=O)[O-])c6)nn5)c4)nc(Cl)nc31)[C@H](O)[C@@H]2O
[in] Returns: the argument ( A or B ) having the larger Ki. Please reply using the label of the selected record.
[out] B
(B: 71.7 nM, A: 1.9 nM)
